pIC50 values by entry
- System: SMMC-7721
- EXPERIMENT NOTES: Antiproliferative activity against human SMMC7721 cells after 48 hrs by MTT assay
- Type: functional, cell-based
- CONDITIONS: SMMC-7721, 48 h
Recall that pIC50 is obtained by taking minus log10 of the concentration measured in molar.

{"columns": ["SMILES STRUCTURE", "pIC50"],
 "data": [
  ["CNC(=O)c1ccc(OC)c(O)c1-c1c(C(=O)NC)ccc(OC)c1O", 4.02]
]}

[in] # query: pIC50 of entry CNC(=O)c1ccc(OC)c(OCCN(C)C)c1-c1c(C(=O)NC)ccc(OC)c1OCC(=O)Nc1ccc(F)c(Cl)c1
[out] 3.91

[in] Check CNC(=O)c1ccc(OC)c(O)c1-c1c(C(=O)NC)ccc(OC)c1OCC(=O)Nc1ccc(F)c(Cl)c1 too.
[out] 3.96

[in] Check CNC(=O)c1ccc(OC)c(O)c1-c1c(C(=O)NC)ccc(OC)c1OCCN1CCOCC1 too.
[out] 4.11

[in] Check CNC(=O)c1ccc(OC)c(OCCN2CCOCC2)c1-c1c(C(=O)NC)ccc(OC)c1OCC(=O)Nc1ccc(F)c(Cl)c1 too.
[out] 3.71

FYI, the data here is from ChEMBL document CHEMBL1177839.
